# experimental_system: Casein kinase I isoform delta (Homo sapiens)
# assay_context: Compound concentration 20.0 uM
# Description: Thermal Shift Assay. Domain: start/stop: M1-K294
quantity: ΔTm (°C)
Report only the number, with the unit °C understood.

Illustrative cases are given below, each with its answer.
Cc1ccc(N2C(=O)/C(=C/C=C/c3ccco3)C(=O)NC2=S)cc1Cl    0.31
O=C(O)C1=CCCN(CCOC(c2ccc(C(F)(F)F)cc2)c2ccc(C(F)(F)F)cc2)C1    -0.26
O=C1Cc2cc(C(=O)N[C@@H]3C[C@H]4CC[C@@H](C3)N4S(=O)(=O)CC3CCN(CCCC(F)(F)F)CC3)c(Cl)cc2N1    0.08
C[C@]12O[C@H](C[C@]1(O)CO)n1c3ccccc3c3c4c(c5c6ccccc6n2c5c31)CNC4=O    2.18
O=C1C(P(=O)(O)O)CC(O)N1O (stereo not drawn)    -0.38

input: ΔTm for `CC(=O)Nc1ccc(OC[C@](C)(O)C(=O)Nc2ccc([N+](=O)[O-])c(C(F)(F)F)c2)cc1` ?
output: 0.23

input: Also `COc1cn(-c2ccc(-n3cccn3)cc2F)nc(-c2ccnn2-c2ccccc2)c1=O` ?
output: 0.13

input: Follow-up item: `CN(C)NC(=O)CCC(=O)O`
output: -0.1

input: Okay, and `COc1cc(O)c2c(c1)/C=C\C[C@H](O)[C@H](O)C(=O)/C=C\C[C@H](C)OC2=O` ?
output: 0.3

input: Further, for `Nc1cc2c3c(c1)C(c1ccccc1)=N[C@@H](NC(=O)c1cccnc1)C(=O)N3CC2` ?
output: -0.17

input: Now this one: `Cc1sc2c(c1C)C(c1ccc(Cl)cc1)=N[C@@H](CC(=O)OC(C)(C)C)c1nnc(C)n1-2`
output: 0.21

input: And the next one, `N#Cc1ccc([C@H]2CCCC[C@H]2O)cc1C(F)(F)F` ?
output: 0.3

input: Lookup `COC(=O)C[C@@H]1N=C(c2ccc(Cl)cc2)c2c(sc(C)c2C)-n2c(C)nnc21`
output: 0.16

input: Also, `C/C(=N\NC(=O)c1cccc(S(=O)(=O)N2CCOCC2)c1)c1cc(Cl)ccc1O` please.
output: 0.6

input: Next up: `CC(C)n1nc(-c2cc3cc(O)ccc3[nH]2)c2c(N)ncnc21`
output: 5.15

input: Queued: `COc1cc(C)[nH]c(=O)c1CNC(=O)c1c(C)n([C@H](C)C2CCN(CC(F)(F)F)CC2)c2ccccc12`
output: 0.08

input: Query `N[C@H]1CC[C@H](N[C@@H]2C[C@H]2c2ccccc2)CC1` next
output: -0.14

input: # iterate: `N#Cc1ccc(N2N=C3c4ccc(C(=O)O)cc4CC[C@@H]3[C@@H]2C2CCCC2)cc1Cl`
output: -4.9

input: Would you mind doing `CNC(=O)c1cc(C(=O)NC2CC2)cn(Cc2ccccc2)c1=O` as well?
output: -0.13

input: Next compound up: `CCOC(=O)c1ccc(-c2ccc(OC(=O)N(C)Cc3cccc(-c4ccncc4)c3)cc2)cc1`
output: -0.29

input: What about this compound? O=C1C(P(=O)(O)O)CCCN1O (stereo not drawn)
output: -0.23

input: Entry `O=C(NNc1ccccn1)c1ccccn1` please
output: -0.33

input: Another compound to check: `C(=C\c1ccccc1)/CN1CCN(CCOC(c2ccccc2)c2ccccc2)CC1`
output: -0.31

---

ΔTm values for the molecules below.
# experimental_system: Casein kinase I isoform delta (Homo sapiens) (UniProt P48730)
# Sequence (P48730 whole entry, looked up, canonical isoform): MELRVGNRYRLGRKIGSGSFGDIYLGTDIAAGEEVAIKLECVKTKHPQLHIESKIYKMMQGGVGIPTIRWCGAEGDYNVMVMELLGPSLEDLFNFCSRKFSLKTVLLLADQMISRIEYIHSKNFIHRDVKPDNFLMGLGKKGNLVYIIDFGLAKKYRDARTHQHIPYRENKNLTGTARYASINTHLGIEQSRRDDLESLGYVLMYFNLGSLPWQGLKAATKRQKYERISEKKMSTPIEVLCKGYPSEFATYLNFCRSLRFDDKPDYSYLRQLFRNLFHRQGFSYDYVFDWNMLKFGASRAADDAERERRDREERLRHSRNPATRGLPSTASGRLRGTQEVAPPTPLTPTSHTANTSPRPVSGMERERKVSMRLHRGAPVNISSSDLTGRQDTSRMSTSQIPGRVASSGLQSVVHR
# assay_context: Compound concentration 20.0 uM
Give just the numeric value; °C need not be written.

CS(=O)(=O)Nc1ccc(-c2coc3cc(OCc4cccc(C(=O)O)c4)ccc3c2=O)cc1    -0.49
CCCCCn1c(C)c(C(=O)c2cccc3ccccc23)c2ccccc21    0.04
COc1cc(C)[nH]c(=O)c1CNC(=O)c1c(C)n([C@H](C)C2CCOCC2)c2ccccc12    0.07

// next entry
input: # ΔTm lookup, item `CC(C)=C[C@H]1C[C@H](C)[C@]2(CC[C@]3(C)C[C@H]4[C@H](C(=O)C[C@@]4(C)O)/C(C=O)=C\C[C@H]32)O1`
output: -0.36

---

Overview of reported ΔTm across a group of compounds:
# experimental_system: Mitogen-activated protein kinase 1 (Homo sapiens)
# assay_context: Compound concentration 20.0 uM
# Description: Thermal Shift Assay. Domain: start/stop: M1-S360
Non-standard residues stand in square brackets, D forms with d. Residues, ends and D or L forms follow the SMILES beside them. *: point of attachment. Benzoyl(4-OPh) = O=C(c1ccc(Oc2ccccc2)cc1)*; Lys(Et2) = CCN(CC)CCCC[C@H](N)C(=O)O; d(aIle) = CC[C@H](C)[C@@H](N)C(=O)O; Gly(cPent) = N[C@H](C(=O)O)C1CCCC1; NH(propargyl) = C#CCN*
Give just the number in °C; leave the unit off.

input: Please tell me: ΔTm of O=C1C(P(=O)(O)O)CCCN1O (stereo not drawn) , system Mitogen-activated protein kinase 1 (Homo sapiens)?
output: 0.01

input: Consider next the compound C#CCNC(=O)[C@H](CO)NC(=O)[C@H](CCCCN(CC)CC)NC(=O)[C@H](NC(=O)[C@@H](NC(=O)c1ccc(Oc2ccccc2)cc1)C1CCCC1)[C@@H](C)CC ({Benzoyl(4-OPh)}-[Gly(cPent)][d(aIle)][Lys(Et2)]S-{NH(propargyl)}) in the same way.
output: 0.25

input: Lookup `Cc1ccc(N2C(=O)/C(=C/C=C/c3ccco3)C(=O)NC2=S)cc1Cl`
output: -1.33

input: Query `COC(=O)C[C@@H]1N=C(c2ccc(Cl)cc2)c2c(sc(C)c2C)-n2c(C)nnc21` next
output: -0.21

---

# experimental_system: Glycogen synthase kinase-3 beta (Homo sapiens)
# assay_context: Compound concentration 20.0 uM
# Description: Thermal Shift Assay. Domain: start/stop: M26-R383
Non-standard residues stand in square brackets, D forms with d. Residues, ends and D or L forms follow the SMILES beside them. *: point of attachment. Benzoyl(4-OPh) = O=C(c1ccc(Oc2ccccc2)cc1)*; Lys(Et2) = CCN(CC)CCCC[C@H](N)C(=O)O; d(aIle) = CC[C@H](C)[C@@H](N)C(=O)O; Gly(cPent) = N[C@H](C(=O)O)C1CCCC1; NH(propargyl) = C#CCN*
quantity: ΔTm (°C)
Give a bare numeral; the unit °C is implied.

The examples below pair each entry with its known result.
Fc1ccc(C(OCCN2CCN(CCCc3ccccc3)CC2)c2ccc(F)cc2)cc1    -0.66
C#CCNC(=O)[C@H](CO)NC(=O)[C@H](CCCCN(CC)CC)NC(=O)[C@H](NC(=O)[C@@H](NC(=O)c1ccc(Oc2ccccc2)cc1)C1CCCC1)[C@@H](C)CC ({Benzoyl(4-OPh)}-[Gly(cPent)][d(aIle)][Lys(Et2)]S-{NH(propargyl)})    -0.46
COc1cc(C)[nH]c(=O)c1CNC(=O)c1c(C)n([C@H](C)C2CCOCC2)c2ccccc12    -0.59

input: Fill in the blank: the reported ΔTm of `C=CCO/N=C1\c2ccccc2-c2nc(C#N)c(C#N)nc21` is ____.
output: 0.17

---

# experimental_system: Mitogen-activated protein kinase 1 (Homo sapiens)
# assay_context: Compound concentration 20.0 uM
quantity: ΔTm (°C)
Write the answer as a number in °C, unit excluded.

Example entries begin here.
CCS(=O)(=O)N1CCC([C@@H](C)n2c(C)c(C(=O)NCc3c(OC)cc(C)[nH]c3=O)c3ccccc32)CC1    -0.34
C/C(=N\NC(=O)c1cccc(S(=O)(=O)N2CCOCC2)c1)c1cc(Cl)ccc1O    0.14
O=C(NNc1ccccn1)c1ccccn1    0.17
O=C(N1CCCC[C@H]1Cc1ccccc1)n1cc(-c2ccc(-c3ccccc3)cc2)nn1    -0.72
O=C1C(P(=O)(O)O)CC(O)N1O (stereo not drawn)    0.16
COc1ccc(C(CN(C)C)C2(O)CCCCC2)cc1 (stereo not drawn)    0.12
Nc1cccc(CNC(=O)c2ccc(Oc3ccc(OCc4cccc(F)c4)cc3)nc2)c1    -0.86
N[C@H]1CC[C@H](N[C@@H]2C[C@H]2c2ccccc2)CC1    0

input: Request: ΔTm, test system Mitogen-activated protein kinase 1 (Homo sapiens), entry `CS(=O)(=O)Nc1ccc(-c2coc3cc(OCc4cccc(C(=O)O)c4)ccc3c2=O)cc1`
output: 0.64

input: Same thing, different compound: `CC(C)=C[C@H]1C[C@H](C)[C@]2(CC[C@]3(C)C[C@H]4[C@H](C(=O)C[C@@]4(C)O)/C(C=O)=C\C[C@H]32)O1`
output: -0.16

input: Would you mind doing C[C@]12CC[C@@H]3c4ccc(O)cc4C[C@@H](CCCCCCCCC[S+]([O-])CCCC(F)(F)C(F)(F)F)[C@H]3[C@@H]1CC[C@@H]2O (stereo partly drawn) as well?
output: -12

input: Follow-up entry: `CCOC(=O)c1ccc(-c2ccc(OC(=O)N(C)Cc3cccc(-c4ccncc4)c3)cc2)cc1`
output: 0.21

input: Here is the next compound: `Nc1cc2c3c(c1)C(c1ccccc1)=N[C@@H](NC(=O)c1cccnc1)C(=O)N3CC2`
output: 0.37

input: Subsequent entry: `O=[N+]([O-])c1cc(O)c(O)c([N+](=O)[O-])c1`
output: 0.24

input: What do we get for `O=C(N1CCCC[C@@H]1Cc1ccccc1)n1cc(-c2ccc(-c3ccccc3)cc2)nn1` ?
output: -0.45
